target: FGF14:Nav1.6 C-tail complex (Homo sapiens, UniProt Q92915+Q9UQD0); construct: polymerase chain reaction (PCR) amplification of the FGF14 open reading frame (nt 1–855); C-terminal fragment of Nav1.6 (amino acids 1763–1976) fused with CD4ΔC-tail (amino acids 1–395); expressed in transfected cells; assay: Split-luciferase complementation assay (LCA) in Clone V double stable HEK293 cells; format: cell-based; conditions: CC_NCI screening, biological replicate Set 2; normalized to on-plate 0.3% DMSO controls (n=16 per plate)
Sequence (Q92915 1-252 isoform Q92915-2): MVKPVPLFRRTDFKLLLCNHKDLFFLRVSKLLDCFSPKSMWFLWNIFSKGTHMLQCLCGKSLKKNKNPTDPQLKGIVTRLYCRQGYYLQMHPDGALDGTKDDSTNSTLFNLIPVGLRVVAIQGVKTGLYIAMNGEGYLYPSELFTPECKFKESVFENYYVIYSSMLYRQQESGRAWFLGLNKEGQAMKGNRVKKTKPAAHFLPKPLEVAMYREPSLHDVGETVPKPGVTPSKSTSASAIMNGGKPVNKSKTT
Sequence (Q9UQD0 1763-1976 limits assumed): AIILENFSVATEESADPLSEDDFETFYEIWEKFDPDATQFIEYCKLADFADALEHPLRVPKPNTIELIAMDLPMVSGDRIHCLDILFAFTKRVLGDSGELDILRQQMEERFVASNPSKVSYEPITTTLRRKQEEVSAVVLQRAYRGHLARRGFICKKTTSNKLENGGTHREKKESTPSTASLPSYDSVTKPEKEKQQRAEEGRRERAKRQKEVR
Counter-ions that a name gives are not always drawn.
measurement name: Split Luciferase Assay %Lum Set 2 (%)
Give bare numbers, in %.

I'm hoping you can list Split Luciferase Assay %Lum Set 2 for every compound here, please.
1. Nc1ccccc1NC(=O)c1ccc(CNC(=O)OCc2cccnc2)cc1
2. CC(=O)[C@]1(O)Cc2c(O)c3c(c(O)c2[C@@H](O[C@H]2C[C@H](N)[C@H](O)[C@H](C)O2)C1)C(=O)c1ccccc1C3=O [Idarubicin hydrochloride]
3. COc1cc(F)c(F)c(Nc2ccc(I)cc2F)c1NS(=O)(=O)C1(C[C@H](O)CO)CC1
4. CCCCCOC(=O)Nc1nc(=O)n([C@@H]2O[C@H](C)[C@@H](O)[C@H]2O)cc1F
5. CC(=O)OCCN1C(=O)c2c(C)nc3ccc(S(=O)(=O)N4CCOCC4)cc3c2C1=O
6. COc1ccc(OC)c2c(=S)c3ccccc3[nH]c12
7. Oc1c2ccccc2c2c3c(cccc13)N=N2

[70.74, 91.55, 9.36, 114.43, 60.34, 85.31, 85.31]

What measured Split Luciferase Assay %Lum Set 2 goes with O=c1[nH]nc(Sc2ncc([N+](=O)[O-])s2)n1-c1ccc2c(c1)OCCO2 ?
3.12

====

What Split Luciferase Assay %Lum Avg was measured for each of the following?
target: FGF14:Nav1.6 C-tail complex (Homo sapiens, UniProt Q92915+Q9UQD0); construct: polymerase chain reaction (PCR) amplification of the FGF14 open reading frame (nt 1–855); C-terminal fragment of Nav1.6 (amino acids 1763–1976) fused with CD4ΔC-tail (amino acids 1–395); expressed in transfected cells; assay: Split-luciferase complementation assay (LCA) in Clone V double stable HEK293 cells; type: cell-based; conditions: CC_NCI screening; average of Set 1 and Set 2; normalized to 0.3% DMSO controls
Give the number first and the unit second.

As a guide, the following entries are already answered.
O=C1CCC(N2C(=O)c3ccccc3C2=O)C(=O)N1 (centres unmarked) [Thalidomide]
118.40%
CN1CCN(CCOc2cc(OC3CCOCC3)c3c(Nc4c(Cl)ccc5c4OCO5)ncnc3c2)CC1 [SARACATINIB]
91.97%
CN1CCN(c2ccc3nc(-c4c(N)c5c(F)cccc5[nH]c4=O)[nH]c3c2)CC1
66.61%
c1cc(CN2CCCNCCNCCCNCC2)ccc1CN1CCCNCCNCCCNCC1
111.81%
CN(C)C/C=C/C(=O)Nc1cc2c(Nc3ccc(F)c(Cl)c3)ncnc2cc1O[C@H]1CCOC1 [Afatinib]
66.73%
NC1(c2ccc(-c3nc4ccn5c(=O)[nH]nc5c4cc3-c3ccccc3)cc2)CCC1
48.01%
Oc1ncnc2[nH]ncc12
101.29%

Consider the record given below.
Recall the recorded Split Luciferase Assay %Lum Avg for COc1cccc(-c2cc(=O)c3ccccc3o2)c1N with FGF14:Nav1.6 C-tail complex (Homo sapiens, UniProt Q92915+Q9UQD0) and state it.
104.86%

====

What Split Luciferase Assay %Lum Set 2 was measured for each of the following?
target: FGF14:Nav1.6 C-tail complex (Homo sapiens, UniProt Q92915+Q9UQD0); construct: polymerase chain reaction (PCR) amplification of the FGF14 open reading frame (nt 1–855); C-terminal fragment of Nav1.6 (amino acids 1763–1976) fused with CD4ΔC-tail (amino acids 1–395); expressed in transfected cells; test: Split-luciferase complementation assay (LCA) in Clone V double stable HEK293 cells; format: cell-based; settings: CC_NCI screening, biological replicate Set 2; normalized to on-plate 0.3% DMSO controls (n=16 per plate)
Counter-ions that a name gives are not always drawn.
Answers are plain numbers, in %.

As a guide, the following entries are already answered.
CO[C@H]1C[C@@H]2CC[C@@H](C)[C@@](O)(O2)C(=O)C(=O)N2CCCC[C@H]2C(=O)O[C@H]([C@H](C)C[C@@H]2CC[C@@H](O)[C@H](OC)C2)CC(=O)[C@H](C)/C=C(\C)[C@@H](O)[C@@H](OC)C(=O)[C@H](C)C[C@H](C)/C=C/C=C/C=C/1C
105.07
Nc1ccccc1NC(=O)c1ccc(CNc2nccc(-c3cccnc3)n2)cc1
75.94
CC[C@]1(O)C[C@@H]2CN(CCc3c([nH]c4ccccc34)[C@@](C(=O)OC)(c3cc4c(cc3OC)N(C)[C@H]3[C@@](O)(C(=O)OC)[C@H](OC(C)=O)[C@]5(CC)C=CCN6CC[C@]43[C@@H]65)C2)C1 [Vinblastine sulfate]
165.41

I'm hoping you can list Split Luciferase Assay %Lum Set 2 for every compound here, please.
1. O=C1NC(=O)/C(=C/c2ccc3c(c2)OCO3)S1
2. Nc1ncn([C@H]2C[C@H](O)[C@@H](CO)O2)c(=O)n1 [Decitabine, reference compound]
3. O=c1cc(N2CCOCC2)oc2c(-c3ccccc3)cccc12
4. CO[C@@]12[C@H](COC(N)=O)C3=C(C(=O)C(C)=C(N)C3=O)N1C[C@@H]1N[C@@H]12
5. O=c1cc(N2CCOCC2)nc2c3ccccc3ccn12
6. O=C1NC(=O)/C(=C/c2ccc3c(c2)OC(F)(F)O3)S1
7. Cc1nc2sccn2c(=O)c1CCN1CCC(=C(c2ccccc2)c2ccc(F)cc2)CC1

1: 106.11; 2: 197.66; 3: 76.98; 4: 99.87; 5: 94.67; 6: 75.94; 7: 98.83

====

biological target: full-length P. pyralis luciferase (Photinus pyralis, UniProt P08659, K549A/L550V/N119G/N50D/S548I); assay type: cell-based; conditions: CC_NCI screening; full-length luciferase counter-screen luminescence; normalized to on-plate 0.3% DMSO controls
Sequence (P08659 whole entry N50D/N119G/S548I/K549A/L550V, looked up): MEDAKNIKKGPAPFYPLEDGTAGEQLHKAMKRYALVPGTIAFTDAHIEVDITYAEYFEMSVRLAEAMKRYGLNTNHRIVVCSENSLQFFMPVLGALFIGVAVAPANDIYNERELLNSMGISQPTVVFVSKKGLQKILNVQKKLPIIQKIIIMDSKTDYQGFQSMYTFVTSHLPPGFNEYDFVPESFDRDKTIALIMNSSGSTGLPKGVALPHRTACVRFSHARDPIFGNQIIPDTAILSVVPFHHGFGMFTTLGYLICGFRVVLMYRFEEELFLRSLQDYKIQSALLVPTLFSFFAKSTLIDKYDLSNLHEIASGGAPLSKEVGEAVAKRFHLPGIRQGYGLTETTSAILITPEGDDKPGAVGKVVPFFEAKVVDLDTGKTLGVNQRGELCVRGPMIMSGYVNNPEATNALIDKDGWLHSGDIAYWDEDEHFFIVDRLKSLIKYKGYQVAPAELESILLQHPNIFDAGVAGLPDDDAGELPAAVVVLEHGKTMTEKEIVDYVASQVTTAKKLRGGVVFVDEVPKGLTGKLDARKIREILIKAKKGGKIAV
measurement name: Luciferase Assay % Lum (%)
Numbers only, in %.

N.N.[Cl][Pt][Cl] [Cisplatin]
99.37
COc1cc2c(cc1OC)[C@@H]1C(=O)c3ccc4c(c3O[C@@H]1CO2)C=CC(C)(C)O4
66.30
C=CCNC1=C2C[C@@H](C)C[C@H](OC)[C@H](O)[C@@H](C)/C=C(\C)[C@H](OC(N)=O)[C@@H](OC)/C=C\C=C(/C)C(=O)NC(=CC1=O)C2=O
80.45
CCCCCCCCCCCCCCCCCCOP(=O)([O-])OC1CC[N+](C)(C)CC1
103.68
CO[C@H]1C[C@@H]2CC[C@@H](C)[C@@](O)(O2)C(=O)C(=O)N2CCCC[C@H]2C(=O)O[C@H]([C@H](C)C[C@@H]2CC[C@@H](OCCO)[C@H](OC)C2)CC(=O)[C@H](C)/C=C(\C)[C@@H](O)[C@@H](OC)C(=O)[C@H](C)C[C@H](C)/C=C/C=C/C=C/1C
72.79

I'm hoping you can list Luciferase Assay % Lum for every compound here, please.
1. O=c1[nH]c(=O)n([C@H]2C[C@H](O)[C@@H](CO)O2)cc1F [Floxuridine, reference compound]
2. OCCn1cc(-c2cnc3nnn(Cc4ccc5ncccc5c4)c3n2)cn1
3. CCN(CCO)CCCOc1ccc2c(Nc3cc(CC(=O)Nc4cccc(F)c4)[nH]n3)ncnc2c1

1. 100.29
2. 111.09
3. 84.20

What measured Luciferase Assay % Lum goes with Cc1cn(-c2cc(NC(=O)c3ccc(C)c(Nc4nccc(-c5cccnc5)n4)c3)cc(C(F)(F)F)c2)cn1 [Nilotinib] ?
94.65

====

experiment: in vitro; settings: human
Structures can show the parent of a compound that is named as a salt.
measurement name: viability at 16 h, 30 µM (%)
Answers are plain numbers, in %.

As a guide, the following entries are already answered.
CCCCC(=O)OCC(=O)[C@]1(O)Cc2c(O)c3c(c(O)c2[C@@H](O[C@H]2C[C@H](NC(=O)C(F)(F)F)[C@H](O)[C@H](C)O2)C1)C(=O)c1c(OC)cccc1C3=O
104
CC(C)Cn1cnc2c(N)nc3ccccc3c21
107

I'm hoping you can list viability at 16 h, 30 µM for every molecule here, please.
1. CS(=O)(=O)c1ccc(C(=O)Nc2ccc(Cl)c(-c3ccccn3)c2)c(Cl)c1
2. O=c1[nH]cc(F)c(=O)[nH]1
3. COc1cc(F)c(F)c(Nc2ccc(I)cc2F)c1NS(=O)(=O)C1(C[C@H](O)CO)CC1
4. Clc1ccc(C(c2ccccc2Cl)C(Cl)Cl)cc1 (stereo not shown)
5. CC(=O)O[C@]1(C(C)=O)CC[C@H]2[C@@H]3C=C(C)C4=CC(=O)CC[C@]4(C)[C@H]3CC[C@@]21C [Megestrol acetate]

[107, 104, 102, 93.9, 106]

I'm hoping you can list viability at 16 h, 30 µM for every molecule here, please.
1. CN(C)C[C@@H]1CCn2cc(c3ccccc32)C2=C(C(=O)NC2=O)c2cn(c3ccccc23)CCO1 [LY 333531, reference compound]
2. CNNCc1ccc(C(=O)NC(C)C)cc1 [Procarbazine hydrochloride]
3. COc1c2occc2cc2ccc(=O)oc12
4. Sc1ncnc2nc[nH]c12
5. CC/C(=C(\c1ccccc1)c1ccc(OCCN(C)C)cc1)c1ccccc1 [Tamoxifen citrate]
6. O=c1cc(N2CCOCC2)oc2c(-c3ccccc3)cccc12

1. 101
2. 109
3. 109
4. 106
5. 43.4
6. 99

I'm hoping you can list viability at 16 h, 30 µM for every molecule here, please.
1. Cc1c[nH]c(-c2cnc(NCCNc3ccc(C#N)cn3)nc2-c2ccc(Cl)cc2Cl)n1
2. CC[C@]1(O)C[C@@H]2CN(CCc3c([nH]c4ccccc34)[C@@](C(=O)OC)(c3cc4c(cc3OC)N(C)[C@H]3[C@@](O)(C(=O)OC)[C@H](OC(C)=O)[C@]5(CC)C=CCN6CC[C@]43[C@@H]65)C2)C1 [Vinblastine sulfate]
3. Nc1ccn([C@@H]2O[C@H](CO)[C@@H](O)[C@@H]2O)c(=O)n1 [Cytarabine hydrochloride]

[108, 108, 108]
